details: in isopropanol, 308.15 K
quantity-kind: solubility (mole fraction)

| smiles | quantity-kind | quantitative-result |
| --- | --- | --- |
| O=c1[nH]c2ccccc2n1CCCN1CCC(n2c(=O)[nH]c3cc(Cl)ccc32)CC1 | solubility (mole fraction) | 3.45e-05 |

###

settings: in isobutanol, 308.15 K

| smiles | solubility (mole fraction) |
| --- | --- |
| O=c1[nH]c2ccccc2n1CCCN1CCC(n2c(=O)[nH]c3cc(Cl)ccc32)CC1 | 4.58e-05 |

###

conditions: in DMF, 283.15 K
quantity-kind: solubility (mole fraction)

| smiles | quantitative-result |
| --- | --- |
| O=c1[nH]c2ccccc2n1CCCN1CCC(n2c(=O)[nH]c3cc(Cl)ccc32)CC1 | 9.91e-05 |
